biological target: p38alpha (Homo sapiens); assay: P38alpha enzyme inhibition assay (Alphascreen kinase activity assay); conditions: 100 pM p38alpha, 250 μM ATP, 2 hours pre-incubation at 25° C., ATF-2 fusion protein substrate; read-out: p38α inhibition (IC50 values)
Sequence (Q16539 whole entry, the tested form may be a part): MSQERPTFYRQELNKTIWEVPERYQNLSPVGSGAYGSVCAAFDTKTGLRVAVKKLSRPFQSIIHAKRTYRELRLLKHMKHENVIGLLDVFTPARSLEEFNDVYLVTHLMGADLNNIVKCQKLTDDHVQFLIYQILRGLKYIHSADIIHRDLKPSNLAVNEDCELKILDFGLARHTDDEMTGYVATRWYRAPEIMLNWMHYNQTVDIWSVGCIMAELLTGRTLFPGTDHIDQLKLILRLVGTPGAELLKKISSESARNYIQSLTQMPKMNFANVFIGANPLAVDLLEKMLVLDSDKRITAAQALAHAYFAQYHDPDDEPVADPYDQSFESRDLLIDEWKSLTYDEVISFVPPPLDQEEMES
Overview of recorded IC50 for various compounds

Entry CC(C)c1nnc2ccc(O[C@@H]3CC[C@H](NC(=O)Nc4cc(C(C)(C)C)nn4-c4cccc(OCCO)c4)c4ccccc43)cn12 [Example 4] : reported IC50 = ?
< 10 nM

Entry Cc1ccc(-n2cc(NC(=O)N[C@H]3CC[C@H](Oc4ccc5nnc(C(C)C)n5c4)c4ccccc43)cn2)cc1 [Example 6] : reported IC50 = ?
100 to 500 nM

Entry Cn1nc(C(C)(C)C)cc1NC(=O)N[C@H]1CC[C@@H](Oc2ccc3nnc(-c4c(Cl)cccc4Cl)n3c2)c2ccccc21 [Example 33] : reported IC50 = ?
< 10 nM

Entry CC(C)c1nnc2ccc(O[C@@H]3CC[C@H](NC(=O)Nc4cc(C(C)(C)C)nn4-c4ccc(CO)cc4)c4ccccc43)cn12 [Example 11] : reported IC50 = ?
< 10 nM

###

test system: LPS-stimulated PBMC TNFα release; assay: LPS-stimulated PBMC TNFα release assay; format: cell-based; conditions: human PBMCs, LPS 10 ng/ml, 18 h, TNFα by ELISA, at least three separate experiments, read-out: p38α inhibition (IC50 values), inhibition of TNFα release
Structures can show the parent of a compound that is named as a salt.
Overview of recorded IC50 for various molecules

molecule	IC50
CC(C)c1nnc2ccc(O[C@@H]3CC[C@H](NC(=O)Nc4cc(C(C)(C)C)nn4C)c4cc(F)ccc43)cn12	10 to 100 nM
CC(C)c1nnc2ccc(O[C@@H]3CC[C@H](NC(=O)Nc4cc(C(C)(C)C)nn4-c4cccc(CN5CCC(F)(F)CC5)c4)c4ccccc43)cn12	10 to 100 nM

Shifting focus to the molecule that follows.
State its IC50 on LPS-stimulated PBMC TNFα release: CC(C)(C)c1cc(NC(=O)N[C@H]2CC[C@@H](Oc3ccc4nnc(-c5c(Cl)cccc5Cl)n4c3)c3ccccc32)n(CCN2CCCCC2)n1 [Example 29, formate salt]
< 10 nM

###

test system: LPS-stimulated PBMC TNFα release; assay: LPS-stimulated PBMC TNFα release assay; assay type: cell-based; conditions: human PBMCs, LPS 10 ng/ml, 18 h, TNFα by ELISA, at least three separate experiments, read-out: p38α inhibition (IC50 values), inhibition of TNFα release
pIC50: −log10 of the molar value. Counter-ions that a name gives are not always drawn.
Overview of recorded pIC50 for various compounds

compound	measure	result
CC(C)c1nnc2ccc(O[C@@H]3CC[C@H](NC(=O)Nc4cc(C(C)(C)C)nn4-c4cccc(SCCO)c4)c4ccccc43)cn12 [Example 3]	pIC50	> 8.00
CC(C)c1nnc2ccc(O[C@@H]3CC[C@H](NC(=O)Nc4cc(C(C)(C)C)nn4CCO)c4ccccc43)cn12 [Example 10]	pIC50	7.00 to 8.00
CC(C)c1nnc2ccc(O[C@@H]3CC[C@H](NC(=O)Nc4cc(C(C)(C)C)nn4-c4ccc(OCCN5CCN(C)CC5)cc4)c4ccccc43)cn12 [Example 13, formic acid salt]	pIC50	6.00 to 7.00

Entry CC(C)c1nnc2ccc(O[C@H]3CC[C@H](NC(=O)Nc4nc(C(C)(C)C)no4)c4ccccc43)cn12 [Example 8] : reported pIC50 = ?
> 8.00

Entry COc1ccc(-n2nc(C(C)(C)C)cc2NC(=O)N[C@H]2CC[C@@H](Oc3ccc4nnc(C(C)C)n4c3)c3ccccc32)cc1 [Example 1] : reported pIC50 = ?
> 8.00

Entry CC(C)c1nnc2ccc(O[C@H]3CC[C@H](NC(=O)Nc4nnc(C(C)(C)C)o4)c4ccccc43)cn12 [Example 5] : reported pIC50 = ?
7.00 to 8.00
